- assayComment: NCI Yeast Anticancer Drug Screen. Data for the cln2 rad14 strain (AID 165);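 note: 0% = growth equal to vehicle treated cultures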
- condition: S. cerevisiae cln2 rad14 strain, at 5.0 µM (retest, dose inferred, filed as 0.5), active compounds read high
- Method: Growth inhibition of yeast strains with defined genetic alterations is measured as a screen for potential anti-cancer activity. Selected strains with alterations in DNA damage repair or cell cycle control were exposed to compounds and growth inhibition was measured relative to vehicle treated controls. The strain used in this assay is cln2 rad14
About 79,000 compounds went through this panel and 15% of them were active in at least one assay; those are over-represented in the sample as a whole. Where a SMILES comes first, the peptide text is derived from it. [ ]: non-standard residue; d: D form. Phe(4-Cl) = N[CH](Cc1ccc(Cl)cc1)C(=O)O; 3Pal = N[CH](Cc1cccnc1)C(=O)O
Readings of growth inhibition for the listed compounds
measure: growth inhibition (%)

compound	measure	endpointUnit	measuredResult
O=C(N/N=C/c1ccccc1O)c1ccccc1-n1cccc1	growth inhibition	%	32
ClC1=CC(Cl)=C2N=C(C(Cl)(Cl)Cl)N=C3N=C(C(Cl)(Cl)Cl)N=C1N32	growth inhibition	%	12
CCOC(=O)Nc1nc2ccc(Cn3cccc3)cc2[nH]1	growth inhibition	%	33
Oc1c(Cl)c(Cl)c(O)c2c1CCCC2	growth inhibition	%	14
CC(C)c1ccc(/C=C(\NC(=O)c2ccccc2)c2nc3ccccc3[nH]2)cc1	growth inhibition	%	-7
O/N=C(/CCc1ccccc1)c1ccccc1	growth inhibition	%	-2
CCC(C)(C)C(=O)OCC(=O)c1ccc(-c2ccccc2)cc1	growth inhibition	%	33
Cn1cc(NC(=O)Nc2cc(C(=O)Nc3cc(C(=O)Nc4cc(S(=O)(=O)O)c5cc(S(=O)(=O)O)cc(S(=O)(=O)O)c5c4)n(C)c3)n(C)c2)cc1C(=O)Nc1cc(C(=O)Nc2cc(S(=O)(=O)O)c3cc(S(=O)(=O)O)cc(S(=O)(=O)O)c3c2)n(C)c1	growth inhibition	%	32
CC(=O)OCCn1c2nc(=O)[nH]c(=O)c-2nc2cc(C)c(C)cc21	growth inhibition	%	-4
CCOC(=O)C(C#N)c1cc(O)c(C(C#N)C(=O)OCC)cc1O (stereo not drawn)	growth inhibition	%	0
O=[N+]([O-])c1ccc2c(c1)N([O-])C1(CCCCC1)[N+]2=O	growth inhibition	%	22
CCOC(=O)C12CCSC1C1(C#N)C(C#N)=CC2(N=P(c2ccccc2)(c2ccccc2)c2ccccc2)n2c(=O)n(-c3ccccc3)c(=O)n21 (stereo not drawn)	growth inhibition	%	32
CCC[CH2][Sn]([CH2]CCC)([O]C(=O)c1cc(F)ccc1F)[O][Sn]([CH2]CCC)([CH2]CCC)[O]C(=O)c1cc(F)ccc1F	growth inhibition	%	74
S=c1sc2ccccc2n1C=Nc1ccccc1	growth inhibition	%	-8
O=[N+]([O-])c1ccc(C2=C[P+](c3ccccc3)(c3ccccc3)C=C(c3ccccc3)O2)cc1	growth inhibition	%	30
C1CCC(C2=NC3CCCCC3SC2)CC1 (stereo not drawn)	growth inhibition	%	10
CC(=O)NC(Cc1ccc(Cl)cc1)C(=O)NC(Cc1ccc(Cl)cc1)C(=O)NC(Cc1cccnc1)C(=O)NC(CO)C(=O)NC(Cc1ccc(O)cc1)C(=O)NC(CCCN=C(N)N)C(=O)NC(CC(C)C)C(=O)NC(CCCN=C(N)N)C(=O)N1CCCC1C(=O)NC(C)C(=O)O (stereo not drawn) (Ac-[Phe(4-Cl)][Phe(4-Cl)][3Pal]SYRLRPA-OH; configuration not given here)	growth inhibition	%	-18
O=[N+]([O-])c1cc(Br)cc2c1nc(NCCCO)c1ccccc12	growth inhibition	%	33
O=C(O)c1cc2c3ccccc3sc2c2ccccc12	growth inhibition	%	-3
O=CCCCc1cc2c(cc1Br)CCC2	growth inhibition	%	10
CCCCCCCCCCCCCCCCCC(=O)OC(C)CCC1CCCO1 (stereo not drawn)	growth inhibition	%	5
O=C1O/C(=C2\OC(=O)c3ccccc32)c2ccccc21	growth inhibition	%	1
O=C(CC(=O)c1cc(Cl)ccc1O)c1cccnc1	growth inhibition	%	7
O=C(Nc1ccccc1[N+](=O)[O-])/C(=N/Nc1cccc(Cl)c1)c1c(O)c2ccccc2oc1=O	growth inhibition	%	11
CN(NC(=O)/C(=C/c1ccc2c(c1)OCO2)NC(=O)c1ccccc1)c1ccnc2cc(Cl)ccc12	growth inhibition	%	22
Cc1cc(NCCCCCCCCNc2cc(C)nc3cc(N(C)C)ccc23)c2ccc(N(C)C)cc2n1	growth inhibition	%	24
Cc1ccc2c(c1)[n+]([O-])c(N)n[n+]2[O-]	growth inhibition	%	11
COc1cccc2c1C(=O)c1c(O)c(CCl)cc(O)c1C2=O	growth inhibition	%	17
CCOC(=O)c1ccc2c(c1)Cc1cc([N+](=O)[O-])ccc1-2	growth inhibition	%	-97
Clc1ccc(CN2COc3c(cc(Cl)c4cccnc34)C2)c(Cl)c1	growth inhibition	%	-9
CC(C)O[C@H]1N(C2CC(N=[N+]=[N-])C(CO)O2)C(=O)NC(=O)[C@]1(C)Br (stereo partly drawn)	growth inhibition	%	4
Cc1cnc(C#N)c(C#N)n1	growth inhibition	%	0
O=C(O)C(=O)Cc1ccccc1[N+](=O)[O-]	growth inhibition	%	1

* * *

Readings of growth inhibition for the listed compounds
- assayComment: NCI Yeast Anticancer Drug Screen. Data for the mec2-1 strain (AID 157)
- condition: S. cerevisiae mec2-1 strain, at 5.0 µM (retest, dose inferred, filed as 0.5), active compounds read high
Compounds without any hit were thinned out: in the full panel of roughly 79,000, 15% have a hit. Calls of active or inactive are those of the source. Cut-off read from the data, not from the text of the source: active = growth inhibition above about 70%; inactive = the rest.
measure: growth inhibition

>>> print(df.to_string())
                                   compound            measure  measuredresult
0  O=C(CNc1ccc(Cl)cc1)Nn1c(-c2ccccc2)nc2ccccc2c1=O  growth inhibition  -9% (inactive)
1  CCCC(C1=C(O)CC(C)CC1=O)C1=C(O)CC(C)CC1=O (centres undefined)  growth inhibition  -5% (inactive)
2                        CC(C)/C=C1\CCOC1=O  growth inhibition  -3% (inactive)
3               Cc1cc(NCCO)nc2c1ccc1ccccc12  growth inhibition   3% (inactive)

* * *

- assayComment: NCI Yeast Anticancer Drug Screen. Data for the mec2-1 strain (AID 157)
- condition: S. cerevisiae mec2-1 strain, at 50.0 µM, active compounds read high
Compounds without any hit were thinned out: in the full panel of roughly 79,000, 15% have a hit.
Lab note: compare growth inhibition against 80%. Equal or greater, write fulfilled. Smaller, write not fulfilled.

compound	categoryLabel
CCCCN(CCCC)CC(O)c1ccc2cc(Cl)c3ccccc3c2c1 (stereo not drawn)	fulfilled
CCCCCCCC/C=C\CCCCCCCC(=O)NCC[N+](C)(C)C	fulfilled
Cc1cc(O)c(/C=N/c2nc(-c3cccc([N+](=O)[O-])c3)cs2)c(=O)o1	not fulfilled
Cn1cc(-c2c3c(cc4c2OCO4)OCO3)c2ccccc21	fulfilled
COC12CC(=O)C(C(C)=O)=C(O)C1(C)c1c(OC(C)=O)c(C)c(O)c(C(C)=O)c1O2 (stereo not drawn)	not fulfilled
CC12CC(O)C3C(CCC4CCCCC43C)C1CC/C2=N/O (stereo not drawn)	fulfilled
O=C(O)CCC(=O)c1ccc2c(c1)CCCC2	not fulfilled
O=C(O)/C=C/C(=O)Nc1cc2c(cc1Br)-c1ccccc1C2Br (stereo not drawn)	not fulfilled
O=NNc1ncccc1OCc1ccccc1	not fulfilled
Cc1cc(Cl)cc2c1NC(=O)C2(O)C(C)C(=O)c1ccc(Cl)cc1 (stereo not drawn)	fulfilled
O=C(COC(=O)C(c1ccccc1)c1ccccc1)c1ccc(Br)cc1	not fulfilled
COc1ccc(C(=O)NCCN2CCN3Cc4[nH]c5ccccc5c4CC3C2)cc1 (stereo not drawn)	not fulfilled
c1ccc(N/N=C2/CCCC3/C(=N\Nc4ccccc4)CCCC23)cc1 (stereo not drawn)	not fulfilled
CC(/C=C/c1cccs1)=N\NC(=S)NCC(C)C	fulfilled
CC(=O)OC1C2C3C(C=CC2[C@H]1OC(C)=O)C1C3C=CC2C1C(OC(C)=O)[C@@H]2OC(C)=O (stereo partly drawn)	not fulfilled
OCCN1CCN(CCCN2c3cc(Cl)ccc3Sc3ccsc32)CC1	fulfilled
Oc1ccc(Cc2cc(Cl)cc(Cl)c2O)cc1Cl	fulfilled
S=C(CSc1ccccc1)Nc1cccc2ccccc12	not fulfilled
C1=C(c2ccccc2)SC=C(c2ccccc2)S1	not fulfilled
Cc1ccc(-c2oc(C=Nc3ccccc3)c([N+](=O)[O-])c2-c2ccc(C)cc2)cc1	not fulfilled
CN1C(=O)c2cccc3cc([N+](=O)[O-])cc(c23)C1=O	not fulfilled
CC[C@@H]1O[C@@H]([C@@H]2CC[C@](O)([C@]3(C)CC[C@@H]([C@@H](C)[C@@]4(O)CC[C@H](C)[C@@H](C[C@@]5(O)O[C@@H]([C@@H](C)[C@H](O)C[C@H]6CC[C@H](C)[C@@H]([C@@H](C)C(=O)O)O6)CC[C@@H]5C)O4)O3)O2)CC[C@@]1(C)O	fulfilled
OC(c1cc(-c2ccccc2)nc2cc(Cl)ccc12)C1CCCCN1 (stereo not drawn)	not fulfilled
CCOC(=O)c1cc(Cl)nc2ccc(OC)cc12	not fulfilled
OC(c1cc(-c2ccc(Cl)c(Cl)c2)nc2ccccc12)C1CCCCN1 (stereo not drawn)	not fulfilled
CC(C)N(C(=O)C12C3C4C1C1C2C3C41I)C(C)C (stereo not drawn)	not fulfilled
O=C(CSc1nnc(Cc2ccccc2)o1)Nc1ccc(Cl)cc1	not fulfilled
CN1c2ccccc2Sc2c1n[nH]c2-c1ccccc1	fulfilled
O=C1C(Cl)=C(Cl)C(=C2C(Cl)=C(Cl)C(=O)C(Cl)=C2Cl)C(Cl)=C1Cl	fulfilled
CN(C)C(=S)S(=O)(=O)CCCCS(=O)(=O)C(=S)N(C)C	not fulfilled
